B1: KCNAB2 (parent)
chain: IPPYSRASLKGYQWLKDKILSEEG

# Variants of: B1
# measurement notes: protein stability index of a GFP-peptide fusion (GPS, HEK-293T) (PSI 1-6); higher = more stable;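 further: lentivirally expressed fusions sorted by FACS into six bins by GFP to DsRed ratio, PSI derived from sequencing read proportions per bin multiplied by bin number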
# settings: c terminus: a fixed tail appended
measurement name: protein stability index
I'd appreciate a reply containing only the number, no unit.

Recorded results for 10 variants are shown here.
INPUT: Bench note: what protein stability index did `S8T` show?
OUTPUT: 2.24

INPUT: Next up: `A7E`
OUTPUT: 2.86

INPUT: Next up: `K16L`
OUTPUT: 1.02

INPUT: Next up: `S21R`
OUTPUT: 1.68

INPUT: Next up: `E22P`
OUTPUT: 2.48

INPUT: Next up: `S21M`
OUTPUT: 2.43

INPUT: Next up: `P3G`
OUTPUT: 1.78

INPUT: Next up: `E22H`
OUTPUT: 1.45

INPUT: Next up: `Y4G`
OUTPUT: 2.76

INPUT: Next up: `S5G`
OUTPUT: 3.42

Would you kindly look at the next entry?
INPUT: Bench note: what protein stability index did `Y12L` show?
OUTPUT: 2.51

Reference source for all entries: the supplement of paper PMC10567573
